Origin of values: paper PMC11372264

Catalogue of Biodistribution, Tumor (tumor uptake) values
system: LNCaP xenografts; assay: Biodistribution in LNCaP xenografts; assay type: in vivo, mice; conditions: 1 h after injection
Readout type: Biodistribution, Tumor (tumor uptake) (%IA/g)

| Molecule | Value units | Result |
| --- | --- | --- |
| O=C([O-])CN(CCN(CC(=O)[O-])Cc1cc(CCC(=O)NCCCCCC(=O)NCCCC[C@H](NC(=O)N[C@@H](CCC(=O)O)C(=O)O)C(=O)O)ccc1[O-])Cc1cc(CCC(=O)O)ccc1[O-].[68Ga+3].[OH3+] [[^68Ga]Ga-PSMA-11, reference compound] | %IA/g | 10.2 |
| O=C([O-])CN1CCN(CC(=O)[O-])CCN(C(CCC(=O)N[C@H](Cc2ccc(O)c(I)c2)C(=O)N[C@H](Cc2ccccc2)C(=O)N[C@H](CCCCNC(=O)CCCCCCC(=O)NCCCC[C@H](NC(=O)N[C@@H](CCC(=O)O)C(=O)O)C(=O)O)C(=O)O)C(=O)O)CC1.[61Cu+2] (stereo partly drawn) [[^61Cu]Cu-NODAGA-PSMA-I&T, NODAGA-(l-y)fk(sub-KuE)] | %IA/g | 14.0 |
| O=C(O)CC[C@H](NC(=O)N[C@@H](CCCCNC(=O)[C@H](Cc1ccc2ccccc2c1)NC(=O)c1ccc(CNC(=O)[C@H](CCC(=O)O)NC(=O)[C@H](CCC(=O)O)NC(=O)c2ccc([18F])nc2)cc1)C(=O)O)C(=O)O [[^18F]PSMA-1007, reference compound] | %IA/g | 9.70 |
| O=C([O-])CN1CCN(CC(=O)O)CCN(CC(=O)[O-])CCN(C(CCC(=O)N[C@H](Cc2ccc(O)c(I)c2)C(=O)N[C@H](Cc2ccccc2)C(=O)N[C@H](CCCCNC(=O)CCCCCCC(=O)NCCCC[C@H](NC(=O)N[C@@H](CCC(=O)O)C(=O)O)C(=O)O)C(=O)O)C(=O)O)CC1.[61Cu+2] (stereo partly drawn) [[^61Cu]Cu-DOTAGA-PSMA-I&T, DOTAGA-(l-y)fk(sub-KuE)] | %IA/g | 6.06 |
